- Measurement target: STING (Homo sapiens, UniProt Q86WV6, G230A/H232R/R293Q/R71H)
- Sequence (Q86WV6 whole entry R71H/G230A/H232R/R293Q): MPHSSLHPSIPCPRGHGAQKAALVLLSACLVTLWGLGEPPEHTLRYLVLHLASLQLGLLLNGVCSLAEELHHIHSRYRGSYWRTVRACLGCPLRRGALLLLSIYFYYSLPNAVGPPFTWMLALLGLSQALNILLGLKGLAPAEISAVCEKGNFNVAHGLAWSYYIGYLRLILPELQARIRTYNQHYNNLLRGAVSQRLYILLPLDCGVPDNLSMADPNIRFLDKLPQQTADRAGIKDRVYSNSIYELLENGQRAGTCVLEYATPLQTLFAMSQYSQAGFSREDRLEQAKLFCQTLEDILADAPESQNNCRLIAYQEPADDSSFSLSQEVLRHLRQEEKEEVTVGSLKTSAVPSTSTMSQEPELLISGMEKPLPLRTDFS
- Experimental details: STING reporter assay: THP1-Dual KO-IFNAR2 cells stimulated with 2′3′cGAMP, luciferase reporter activity
- Format: cell-based
- Measurement parameters: 15 μM 2′3′cGAMP, 24h, class symbols
pEC50: −log10 of the molar value.
Measurement name: pEC50

Exercise: # lookup: pEC50 of `O=C(Nc1ccc(C(F)(F)F)cc1)Nc1cc2[nH]ccc2cc1F`
Solution: 4.00 to 5.30

Exercise: Next: `FC(F)(F)Cc1ccc(Nc2ccc3cc[nH]c3c2)nc1`
Solution: 4.00 to 5.30

Exercise: Next: `CCCCc1ccc(Nc2c(Nc3ccc4c(c3)CC=N4)c(=O)c2=O)cc1`
Solution: 5.30 to 6.00

Exercise: Next: `CC(C)(C)OC(=O)N1CCc2cnc(Nc3ccc4cc[nH]c4c3)nc2C1`
Solution: 4.00 to 5.30

Exercise: Next: `O=C(Nc1ccc(C(F)(F)F)c(F)c1)Nc1ccc2cc[nH]c2c1`
Solution: 6.70 to 7.40

Exercise: Next: `O=C(Nc1ccc(S(=O)(=O)C(F)(F)F)cc1)Nc1ccc2cc[nH]c2c1`
Solution: 6.00 to 6.70

Continuing:
Exercise: # lookup: pEC50 of `CC(=O)n1ccc2ccc(NC(=O)Nc3ccc(C(F)(F)F)cc3)cc21`
Solution: 5.30 to 6.00

Exercise: Next: `COc1nc(Nc2ccc3cc[nH]c3c2)ccc1F`
Solution: 4.00 to 5.30

Exercise: Next: `Fc1cc(C(F)(F)F)c2ccc(Nc3ccc4cc[nH]c4c3)nc2c1`
Solution: 6.00 to 6.70
